Taken from patent US20260209325A1.

target_under_test: recombinant human latent myostatin (human, UniProt O14793 24-375, biotinylated (in the Octet pH assay only))
assay_overview: cell-based or functional assay
Reported mTLL2 IC50 is given for each of the following binders.
Write it as a number; the unit nM goes unstated.

Ab109 (antibody, human IgG4 S228P, kappa, V domains shown, human IgG4 in the EM experiment; also called Ab109 Human IgG4) VH: EVQLVESGGGLVQPGGSLRLSCAASGFTFSSYGMSWVRQAPGKGLELVASFTGSGGTYYPDSVKGRFTISRDNAKNSLYLQMNSLRAEDTAVYYCARDLLIRFLEWSHYYGMDVWGQGTTVTVSS VL: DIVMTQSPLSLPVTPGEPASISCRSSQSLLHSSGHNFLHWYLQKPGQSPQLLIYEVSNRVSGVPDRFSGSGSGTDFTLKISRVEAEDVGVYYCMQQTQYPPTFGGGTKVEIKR: 0.145
Ab123 (antibody, human IgG4 S228P, kappa, V domains shown) VH: EVQLVESGGGLVQPGGSLRLSCAASGFTFSKYDMSWVRQAPGKGLELVASISSSGGTRYYPDSVKGRFTISRDNAKNSLYLQMNSLRAEDTAVYYCAKDLWVASPGYGMDVWGQGTTVTVSS VL: DIVMTQSPLSLPVTPGEPASISCRSSQSLLHSSGHNYLHWYLQKPGQSPQLLIYLGSIRAPGVPDRFSGSGSGTDFTLKISRVEAEDVGVYYCMQALLNPPTFGGGTKVEIKR: 0.139

# context switch: different binder, same mTLL2 IC50
Ask | Name the reported mTLL2 IC50 value associated with the binder Ab130 (antibody, human IgG4 S228P, kappa, V domains shown) VH: EVQLVESGGGLVQPGGSLRLSCAASGFTFTSYGMSWVRQAPGKGLELVASITGSGGETYYPDSVKGRFTISRDNAKNSLYLQMNSLRAEDTAVYYCARDLLVRFLEWSHYYGMDVWGQGTTVTVSS VL: DIVMTQSPLSLPVTPGEPASISCRSSQSLLHSSGHNFLHWYLQKPGQSPQLLIYETSNRAPGIPDRFSGSGSGTDFTLKISRVEAEDVGVYYCQQATQFPRPFGGGTKVEIKR
Reply | 0.33
